All figures here come from patent US20090156577A1.

System: pathogenic bacteria
procedure details: MIC by microdilution broth method (NCCLS M7-A4), in vitro antibacterial activity
Assay type: cell-based
assay context: Streptococcus pneumoniae, Organism C: fluoroquinolone-resistant clinical isolate of Streptococcus pneumoniae (QRDR amino acid substitutions)
parameter: MIC (µg/mL)
Provide the reading as a plain figure in µg/mL.

The following molecules have reported results that may help.
# value of MIC, pathogenic bacteria, item CC(CN)=C1CCN(c2cc3c(cc2F)c(=O)c(C(=O)O)cn3C2CC2)CC1 = 2

# value of MIC, pathogenic bacteria, item NC/C(F)=C1\CCCN(c2c(F)cc3c(=O)c(C(=O)O)cn(C4CC4)c3c2OC(F)F)C1 = 8

# value of MIC, pathogenic bacteria, item Cc1c(N2CCC(=C(Cl)CN)CC2)c(F)cc2c(=O)c(C(=O)O)cn(C3CC3)c12 = 0.12

# value of MIC, pathogenic bacteria, item CN(CC(F)=C1CCN(c2c(F)cc3c(=O)c(C(=O)O)cn(C4CC4)c3c2OC(F)F)CC1)Cc1ccccc1 = 8

# value of MIC, pathogenic bacteria, item CCC(CN)=C1CCN(c2nc3c(cc2F)c(=O)c(C(=O)O)cn3C2CC2)CC1 = 1

***
# value of MIC, pathogenic bacteria, item Cc1c(F)c(N2CCC(=C(Cl)CN)CC2)cc2c1c(=O)c(C(=O)O)cn2C1CC1 = 1

# value of MIC, pathogenic bacteria, item CNCC(Cl)=C1CCN(c2c(F)cc3c(=O)c(C(=O)O)cn(C4CC4)c3c2O)CC1.Cl = 2
